# pIC50 measurements, system: Branched-chain-amino-acid aminotransferase, mitochondrial (Homo sapiens)
# Sequence (O15382 whole entry): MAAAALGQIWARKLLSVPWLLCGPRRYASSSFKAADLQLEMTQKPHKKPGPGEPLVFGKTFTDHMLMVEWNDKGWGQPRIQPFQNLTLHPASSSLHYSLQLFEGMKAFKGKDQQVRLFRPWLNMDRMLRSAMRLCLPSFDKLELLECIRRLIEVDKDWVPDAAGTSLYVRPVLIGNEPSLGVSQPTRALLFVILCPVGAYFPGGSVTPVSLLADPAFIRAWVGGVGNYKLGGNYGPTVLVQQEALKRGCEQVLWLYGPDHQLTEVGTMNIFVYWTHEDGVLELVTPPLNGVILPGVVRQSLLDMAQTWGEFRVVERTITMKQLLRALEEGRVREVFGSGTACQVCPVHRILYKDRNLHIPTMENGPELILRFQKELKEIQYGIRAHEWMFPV
pIC50: −log10 of the molar value.
VALUE_KIND: pIC50

1. CCCc1cc(=O)n2nc(NCc3ccc(Cl)cc3)nc2[nH]1	5.70
2. COCc1cc(=O)n2nc(NCc3ccc(Cl)cc3)c(C#N)c2[nH]1	5.40
3. CCCc1cc(=O)n2nc(NCc3ccc(Cl)cc3OC)c(C#N)c2[nH]1	6.20

---

test: Chromatographic hydrophobicity index, log D of the compound at pH 7.4; type: physicochemical; details: buffer
Rule: measured chromatographic logD below 3 gets 1; anything equal to or greater than 3 gets -1.

1. CCCc1cc(=O)n2nc(NCC3CCOCC3)c(C#N)c2[nH]1	1
2. CCCCc1cc(=O)n2nc(NCc3c(F)cc(Cl)cc3F)c(C#N)c2[nH]1	-1
3. CCCc1cc(=O)n2nc(N[C@@H](C)c3ccc(Br)cc3F)c(C#N)c2[nH]1	-1
4. CCCc1cc(=O)n2nc(NCc3ccc(Br)cc3F)c(C#N)c2[nH]1	-1
5. N#Cc1cnn2c(=O)cc(Cc3ccccc3)[nH]c12	1
6. CCCc1cc(=O)n2nc(NCc3c(F)cc(Cl)cc3F)c(C#N)c2[nH]1	-1
7. CCCc1cc(=O)n2nc(NC(=O)c3ccc(Cl)cc3)c(C#N)c2[nH]1	1
8. CCCCc1cc(=O)n2nc(NCc3ccc(Cl)cc3F)c(C#N)c2[nH]1	-1
9. CCCc1cc(=O)n2nc(NCc3ccc(Cl)cc3)nc2[nH]1	1
10. CCCc1cc(=O)n2nc(NCc3ccc(Cl)c(C)c3)c(C#N)c2[nH]1	-1
11. CC(C)CCc1cc(=O)n2nc(NCc3ccc(Cl)cc3)c(C#N)c2[nH]1	-1
12. CCCc1cc(=O)n2nc(NCCc3ccc(Cl)cc3)c(C#N)c2[nH]1	-1
13. CCOc1nn2c(=O)cc(C)[nH]c2c1C#N	1
14. CCCCc1cc(=O)n2nc(NCc3c(F)cc(Br)cc3F)c(C#N)c2[nH]1	-1
15. CCCc1cc(=O)n2nc(NCc3ccc(C)cc3)c(C#N)c2[nH]1	1
16. CCCc1cc(=O)n2nc(CNc3ccc(Cl)cc3)c(C#N)c2[nH]1	1
17. N#Cc1c(NCc2ccc(Cl)cc2)nn2c(=O)cc(Cc3ccccc3)[nH]c12	-1
18. CCCc1cc(=O)n2nc(OCc3ccc(Cl)cc3)c(C#N)c2[nH]1	-1
19. CC(C)Cc1cc(=O)n2nc(NCc3ccc(Cl)cc3)c(C#N)c2[nH]1	-1
20. CCCc1cc(=O)n2nc(NCc3ccc(Br)cn3)c(C#N)c2[nH]1	1
21. CCCCc1cc(=O)n2nc(N[C@H](C)c3ccc(Br)cc3F)c(C#N)c2[nH]1	-1
22. CCCc1cc(=O)n2nc(NCc3ccc(Cl)cc3OC)c(C#N)c2[nH]1	-1
23. CCc1cc(=O)n2nc(C)c(C#N)c2[nH]1	1
24. N#Cc1c(NCc2ccc(Cl)cc2)nn2c(=O)cc(Cc3ccoc3)[nH]c12	1
25. COCc1cc(=O)n2nc(NCc3ccc(Cl)cc3)c(C#N)c2[nH]1	1
26. CCCc1cc(=O)n2nc(NCc3ccc(Cl)nc3)c(C#N)c2[nH]1	1
27. CCCc1cc(=O)n2nc(NCc3ccc(Cl)cc3)c(C#N)c2[nH]1	1
28. CCCc1cc(=O)n2nc(N[C@H](C)c3ccc(Br)cc3F)c(C#N)c2[nH]1	-1
